- System Under Test: Alpha-2C adrenergic receptor (Homo sapiens) (UniProt P18825)
- Sequence (P18825 whole entry, looked up): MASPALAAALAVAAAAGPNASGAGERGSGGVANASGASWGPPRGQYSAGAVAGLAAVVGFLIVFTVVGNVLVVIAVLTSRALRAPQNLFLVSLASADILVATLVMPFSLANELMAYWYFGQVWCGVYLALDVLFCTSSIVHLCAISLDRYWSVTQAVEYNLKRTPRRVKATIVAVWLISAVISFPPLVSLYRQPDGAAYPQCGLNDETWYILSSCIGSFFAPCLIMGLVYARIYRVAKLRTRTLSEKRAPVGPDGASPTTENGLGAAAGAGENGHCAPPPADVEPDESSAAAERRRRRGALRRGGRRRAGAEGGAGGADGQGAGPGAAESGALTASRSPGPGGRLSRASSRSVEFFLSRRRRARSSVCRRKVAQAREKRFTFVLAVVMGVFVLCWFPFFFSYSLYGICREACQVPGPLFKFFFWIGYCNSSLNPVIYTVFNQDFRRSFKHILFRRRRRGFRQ
- Experiment Summary: modulators of alpha2C/GIRK thallium flux, primary screen, cell-based, HEK293 alpha2C/GIRK1/2 (AID 624);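 further: slope of fluorescence ratio to pre-addition baseline per second over 15 to 24 s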
- Test Conditions: thallium flux BTC fluorescence, at 10 µM, actives lie on both sides
Result Type: slope
# print the numeric value only

Data request: Find the measured slope of O=C(C1CCCN(S(=O)(=O)c2cnc[nH]2)C1)N1CCN(c2ccc(Cl)cc2)CC1 (stereo not given) with Alpha-2C adrenergic receptor (Homo sapiens) (UniProt P18825) as test system.
Data returned: 0.00672

Data request: Find the measured slope of `CCn1c(CSc2nc(C)cc(C)n2)nnc1SCC(=O)Nc1ccccc1` with Alpha-2C adrenergic receptor (Homo sapiens) (UniProt P18825) as test system.
Data returned: 0.00615

Data request: Find the measured slope of CC1(C)OC(=O)C(=CNC(CCC(N)=O)C(=O)O)C(=O)O1 (stereo not given) with Alpha-2C adrenergic receptor (Homo sapiens) (UniProt P18825) as test system.
Data returned: 0.00611

Data request: Find the measured slope of CCOc1ccc(C2C=C(c3ccc(F)cc3)Nc3ncnn32)cc1 (stereo not given) with Alpha-2C adrenergic receptor (Homo sapiens) (UniProt P18825) as test system.
Data returned: 0.00554

Data request: Find the measured slope of `CCOC(=O)c1cnn(-c2cc(C)c3cc(C)cc(C)c3n2)c1N` with Alpha-2C adrenergic receptor (Homo sapiens) (UniProt P18825) as test system.
Data returned: 0.00906

Data request: Find the measured slope of `CCOc1ccc(C(=O)N2CCN(c3ccccc3)CC2)cc1OCC` with Alpha-2C adrenergic receptor (Homo sapiens) (UniProt P18825) as test system.
Data returned: 0.00618

Data request: Find the measured slope of `COc1cccc(NS(=O)(=O)c2ccc3[nH]cc(C(=O)NC4CC4)c(=O)c3c2)c1` with Alpha-2C adrenergic receptor (Homo sapiens) (UniProt P18825) as test system.
Data returned: 0.00731

Data request: Find the measured slope of `CN1CCc2c(sc3c2c(=O)n(-c2cccc(Cl)c2)c2nncn32)C1` with Alpha-2C adrenergic receptor (Homo sapiens) (UniProt P18825) as test system.
Data returned: 0.00609

Data request: Find the measured slope of `Cc1ccc(CSC2=NCCN2C(=O)c2ccco2)cc1` with Alpha-2C adrenergic receptor (Homo sapiens) (UniProt P18825) as test system.
Data returned: 0.00684

Data request: Find the measured slope of `O=C(C1CCCCC1)N1CCC(c2nc3c(nnn3Cc3ccccc3Cl)c(=O)[nH]2)CC1` with Alpha-2C adrenergic receptor (Homo sapiens) (UniProt P18825) as test system.
Data returned: 0.00569

---

- Experiment Summary: inhibitors of TNFa-induced NFkB p65 translocation, primary screen, imaging, HUVEC, MLSMR starter and 10KST1 sets (AID 438);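 further: compound added about 3h40 before a 20 min TNFalpha stimulation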
- Test Conditions: HUVEC TNFa-induced p65 nuclear translocation; measured here: nuclei count (cytotoxicity indicator), at 2.08 µM
Result Type: cell count
# print the numeric value only

Here are 6 compounds together with their reported answers.
- Compound: "COc1ccc(-c2nnnn2C)cc1S(=O)(=O)NCc1ccccc1"
  cell count: 579
- Compound: "C=Cn1nc(C)c2ccccc2c1=O"
  cell count: 655
- Compound: "Cc1cc(NS(=O)(=O)c2ccc(NC(=O)COc3ccccc3C(C)C)cc2)no1"
  cell count: 579
- Compound: "O=C(NCc1ccccc1)/C(=N\\O)c1ccccc1"
  cell count: 517
- Compound: "Cc1cc(C)n(-c2nc3sc4c(c3c3nnc(SCC(N)=O)n23)CC(C)(C)OC4)n1"
  cell count: 368
- Compound: "CC(=O)Nc1cccc(NC(=O)c2ccco2)c1"
  cell count: 286

Kindly review the next compound as well.
Data request: For the compound `COc1ccc(-c2ccc(-c3noc(-c4ccccc4)n3)c(OC)n2)cc1` , report cell count.
Data returned: 359
